These measurements were taken from PubChem BioAssay AID1159580.

Collected normalized growth values appear next to each entry.
Assay Info: chemical genetic growth profiling, strain panel (AID 1159580);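 also: tested at 20 µM; growth read once vehicle control cultures reached saturation at 30 °C; 1 = growth at the plate median or of vehicle wells; lower values mean less growth of the strain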
Assay Setup: S. cerevisiae deletion strains, growth OD, locus YBR279W, strain paf1, stronger effect = lower value
About 2,000 (36%) of roughly 5,500 compounds were called active. Roughly 18% stayed inconclusive and do not appear here. Some of the results follow.
Keep it simple and answer with nothing but the number.

[Q] Using the record for CCCCN(CC)c1c([N+](=O)[O-])cc(C(F)(F)F)cc1[N+](=O)[O-] , report its normalized growth.
[A] 1.01

Next:
[Q] Using the record for CC(=O)O[C@H]1CC2CCC3C(CC[C@@]4(C)C3C[C@H]([N+]3(C)CCCCC3)[C@@H]4OC(C)=O)[C@@]2(C)C[C@@H]1N1CCCCC1 (some centres undefined) , report its normalized growth.
[A] 1.03

[Q] // repeat for CC(=O)OC[C@@]1(O)C[C@@]23CCC4c5ccoc5CC[C@]4(C)C2CC[C@@H]1C3 (some centres undefined) and report
[A] 1.02

[Q] // repeat for C=C[C@H]1CN2CC[C@H]1C[C@H]2[C@H](O)c1ccnc2ccccc12 and report
[A] 1

[Q] // repeat for CC(=O)Oc1c(C)c(C)c2c(c1C)CCC(C)(CCCC(C)CCCC(C)CCCC(C)C)O2 (centres undefined) and report
[A] 0.985

[Q] // repeat for COCC1=C(C(=O)OC(C)OC(=O)OC(C)C)N2C(=O)[C@@H](NC(=O)/C(=N\OC)c3csc(N)n3)[C@H]2SC1 (some centres undefined) and report
[A] 0.98

###

Assay Info: chemical genetic growth profiling, strain panel (AID 1159580);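 also: tested at 20 µM; growth read once vehicle control cultures reached saturation at 30 °C; 1 = growth at the plate median or of vehicle wells; lower values mean less growth of the strain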
Assay Setup: S. cerevisiae deletion strains, growth OD, locus YAL013W, strain DEP1, stronger effect = lower value
Out of some 5,500 compounds screened, about 2,000 (36%) were called active. Roughly 18% stayed inconclusive and do not appear here. The list shows a part of the results.
Readout Type: normalized growth

Recorded normalized growth, per entry:
[Q] Using the record for Nc1ccccc1C(=O)NCCc1ccc(Cl)cc1 , report its normalized growth.
[A] 0.979 (inactive)

[Q] // repeat for Cc1ccc(O)c(C(CCN(C(C)C)C(C)C)c2ccccc2)c1 (centres undefined) and report
[A] 1.01 (inactive)

[Q] // repeat for Cn1cnc2c1c(=O)[nH]c(=O)n2C and report
[A] 1.01 (inactive)

[Q] // repeat for CNC(C)(C)Cc1ccccc1 and report
[A] 1.01 (inactive)

[Q] // repeat for CC1=C(C(=O)O)N2C(=O)[C@@H](NC(=O)[C@@H](N)c3ccc(O)cc3)[C@H]2SC1 and report
[A] 0.993 (inactive)

Next:
[Q] Using the record for COc1cc([C@@H]2c3cc4c(cc3[C@H](O)[C@H]3COC(=O)[C@H]23)OCO4)cc(OC)c1OC , report its normalized growth.
[A] 1.01 (inactive)

[Q] // repeat for COc1c([N+](=O)[O-])cc(C(F)(F)F)cc1[N+](=O)[O-] and report
[A] 0.978 (inactive)

[Q] // repeat for CCCn1cnc2c1c(=O)n(CCCCC(C)=O)c(=O)n2C and report
[A] 1.01 (inactive)

[Q] // repeat for CCOC(=O)CC(=O)CSc1nnc(N)s1 and report
[A] 0.998 (inactive)

[Q] // repeat for COc1ccc(-c2c(O)c3c(OC)c4c(cc3oc2=O)OC(C)(C)C=C4)cc1 and report
[A] 0.959 (inactive)

[Q] // repeat for C/C(=N/O)c1ccn(S(=O)(=O)c2ccc(Cl)cc2)c1 and report
[A] 0.998 (inactive)

[Q] // repeat for CCCCCC/C=C\CCCCCCCc1cccc(O)c1C(=O)O and report
[A] 1.08 (inactive)

[Q] // repeat for O=C1C=C(O)c2ccccc2C1=O and report
[A] 0.969 (inactive)

[Q] // repeat for COc1ccc(CCNC(=O)c2ccccc2Cl)cc1OC and report
[A] 0.993 (inactive)

[Q] // repeat for N[C@@H](C(=O)N[C@@H]1C(=O)N2C(C(=O)O)=C(Cl)CS[C@H]12)c1ccccc1 and report
[A] 1.01 (inactive)

[Q] // repeat for CCOC(=O)c1ccc(Oc2ncc(C(F)(F)F)cc2Cl)cc1 and report
[A] 1.04 (inactive)

[Q] // repeat for CNC(=O)Oc1ccccc1OC(C)C and report
[A] 1.01 (inactive)

[Q] // repeat for Cn1c(=O)c2c(ncn2CCCl)n(C)c1=O and report
[A] 1 (inactive)

[Q] // repeat for CCCn1c(=O)c2c(ncn2C)n(CCC)c1=O and report
[A] 0.983 (inactive)

[Q] // repeat for O=C1c2ccccc2C(=O)c2ccccc21 and report
[A] 1 (inactive)

[Q] // repeat for O=[N+]([O-])c1cc(C(F)(F)F)ccc1Oc1cc(C(F)(F)F)cc(C(F)(F)F)c1 and report
[A] 1.03 (inactive)

[Q] // repeat for NS(=O)(=O)c1cc2c(cc1Cl)NCNS2(=O)=O and report
[A] 1.01 (inactive)

[Q] // repeat for Cc1cc(Oc2c([N+](=O)[O-])cc(C(F)(F)F)cc2[N+](=O)[O-])c2c(Cl)ccc(C)c2n1 and report
[A] 0.667 (active)

[Q] // repeat for COc1cc(O)c2c(c1)C(=O)c1cc(C)cc(O)c1C2=O and report
[A] 0.991 (inactive)
